Source listed as the supplement of paper PMC4466140.

- MEASURED TARGET: SpHof1
- ASSAY COMMENT: SPOT peptide array binding signal intensity (averaged, normalized) (arbitrary units (background-subtracted, floor 0; scale differs between SH3 domains)); higher = stronger binding of the SH3 domain to the peptide
ASSAY READOUT: SPOT peptide array binding signal intensity

{"columns": ["BINDER", "RESULT"],
 "data": [
  ["PSPSSSPPPIPKTAN", "≤ 0"],
  ["PSRRDSLSIPRAVDA", 1.25],
  ["RVTRKRPREPKSTND", 222],
  ["PPIPNAPLSPAPAVP", "≤ 0"],
  ["QPPLPSSAPPIPTSH", "≤ 0"],
  ["TTAPALPSLPPPPLL", "≤ 0"],
  ["NNQRRKPLLLNIGDH", 93.2]
]}
